The origin of these recorded values is ChEMBL document CHEMBL3868618.

# Tested on: Staphylococcus aureus
# TEST METHOD NOTES: Antibacterial activity against methicillin-resistant Staphylococcus aureus 3167 measured after 24 hrs by two-fold serial dilution method
# Assay type: functional
# EXPERIMENTAL CONTEXT: Staphylococcus aureus, 3167, 24 h
QUANTITY: MIC (µg/mL)

INSERT INTO measurements (compound, unit, censoring_qualifier, measured_value) VALUES
  ('O=C(N/N=C/c1ccc(/C=C/C(=O)c2ccccc2Cl)cc1)c1cccc(Cl)c1', 'µg/mL', '=', 32),
  ('COc1c(N2CCNC(C)C2)c(F)cc2c(=O)c(C(=O)O)cn(C3CC3)c12 (centres undefined)', 'µg/mL', '=', 2),
  ('O=C(/C=C/c1ccc(/C=N/NC(=O)c2ccncc2)cc1)c1ccc(Br)cc1', 'µg/mL', '>', 64),
  ('O=C(N/N=C/c1ccc(/C=C/C(=O)c2ccc(Cl)cc2Cl)cc1)c1ccncc1', 'µg/mL', '=', 16);

###

This section presents compounds with their documented MIC values.
# Test system: Staphylococcus aureus
# TEST METHOD NOTES: Antibacterial activity against methicillin-resistant Staphylococcus aureus 3167 measured after 24 hrs by two-fold serial dilution method
# Assay type: functional
# EXPERIMENTAL CONTEXT: Staphylococcus aureus, 3167, 24 h
QUANTITY: MIC (mg/L)

INSERT INTO assay_data (smiles_text, assay_system, unit, censoring_qualifier, measured_value) VALUES
  ('O=C(/C=C/c1ccc(/C=N/NC(=O)c2cccc(Cl)c2)cc1)c1cccc(Cl)c1', 'Staphylococcus aureus', 'mg/L', '=', 32),
  ('Cc1onc(-c2ccccc2)c1C(=O)N[C@@H]1C(=O)N2[C@@H]1SC(C)(C)[C@@H]2C(=O)O', 'Staphylococcus aureus', 'mg/L', '>', 64),
  ('O=C(N/N=C/c1ccc(/C=C/C(=O)c2ccccc2F)cc1)c1ccccc1', 'Staphylococcus aureus', 'mg/L', '=', 64),
  ('O=C(N/N=C/c1ccc(/C=C/C(=O)c2ccccc2Br)cc1)c1ccccc1', 'Staphylococcus aureus', 'mg/L', '>', 64),
  ('N=C(N)N/N=C/c1ccc(/C=C/C(=O)c2cccc(Br)c2)cc1', 'Staphylococcus aureus', 'mg/L', '=', 2);

###

The following compounds are listed with their measured MIC values.
# Test system: Escherichia coli
# TEST METHOD NOTES: Antibacterial activity against Escherichia coli 1356 measured after 24 hrs by two-fold serial dilution method
# Assay type: functional
# EXPERIMENTAL CONTEXT: Escherichia coli, 1356, 24 h
QUANTITY: MIC (µg/mL)

INSERT INTO measurements (smiles_text, censoring_qualifier, measured_value) VALUES
  ('N=C(N)N/N=C/c1ccc(/C=C/C(=O)c2ccc(Cl)cc2)cc1', '=', 8),
  ('N=C(N)N/N=C/c1ccc(/C=C/C(=O)c2ccccc2F)cc1', '=', 16),
  ('O=C(/C=C/c1ccc(/C=N/NC(=O)c2ccncc2)cc1)c1cccc(Br)c1', '>', 64),
  ('O=C(N/N=C/c1ccc(/C=C/C(=O)c2ccccc2Cl)cc1)c1cccc(Cl)c1', '>', 64),
  ('O=C(N/N=C/c1ccc(/C=C/C(=O)c2ccccc2F)cc1)c1ccncc1', '=', 64),
  ('O=C(/C=C/c1ccc(/C=N/NC(=O)c2cccc(Cl)c2)cc1)c1cccc(Cl)c1', '=', 32),
  ('O=C(N/N=C/c1ccc(/C=C/C(=O)c2ccc(Cl)cc2Cl)cc1)c1ccncc1', '=', 32),
  ('N=C(N)N/N=C/c1ccc(/C=C/C(=O)c2cccc(Br)c2)cc1', '=', 8),
  ('O=C(N/N=C/c1ccc(/C=C/C(=O)c2ccccc2Br)cc1)c1ccncc1', '>', 64),
  ('N=C(N)N/N=C/c1ccc(/C=C/C(=O)c2ccc(Cl)cc2Cl)cc1', '=', 8),
  ('O=C(N/N=C/c1ccc(/C=C/C(=O)c2ccccc2Cl)cc1)c1ccccc1', '>', 64),
  ('Cc1ccc(C(=O)/C=C/c2ccc(/C=N/NC(=N)N)cc2)c(C)c1', '=', 8),
  ('O=C(/C=C/c1ccc(/C=N/NC(=O)c2ccncc2)cc1)c1ccc(F)cc1', '=', 64),
  ('Cc1ccc(C(=O)/C=C/c2ccc(/C=N/NC(=O)c3ccncc3)cc2)c(C)c1', '>', 64),
  ('O=C(/C=C/c1ccc(/C=N/NC(=O)c2cccc(Cl)c2)cc1)c1ccc(Cl)cc1', '=', 32),
  ('COc1ccc(C(=O)/C=C/c2ccc(/C=N/NC(=N)N)cc2)cc1', '=', 32),
  ('O=C(/C=C/c1ccc(/C=N/NC(=O)c2ccncc2)cc1)c1ccc(Br)cc1', '>', 64),
  ('Cc1ccc(C(=O)/C=C/c2ccc(/C=N/NC(=N)N)cc2)cc1', '=', 8);

###

# TEST METHOD NOTES: Cytotoxicity against human L02 cells assessed as reduction in cell viability measured after 24 hrs by MTT assay
# Format: toxicity, cell-based
QUANTITY: IC50 at 24 h

INSERT INTO assay_data (smiles_text, quantity, measured_value) VALUES
  ('N=C(N)N/N=C/c1ccc(/C=C/C(=O)c2ccc(Cl)cc2Cl)cc1', 'IC50 at 24 h', '18.1 mg/L');

###

# System: Staphylococcus aureus
# TEST METHOD NOTES: Antibacterial activity against Staphylococcus aureus 4220 measured after 24 hrs by two-fold serial dilution method
# Format: functional
# EXPERIMENTAL CONTEXT: Staphylococcus aureus, 4220, 24 h
// values below are reported MIC
QUANTITY: MIC (µg/mL)

INSERT INTO results (smiles_text, censoring_qualifier, measured_value) VALUES
  ('O=C(/C=C/c1ccc(/C=N/NC(=O)c2ccncc2)cc1)c1ccc(F)cc1', '=', 32),
  ('N=C(N)N/N=C/c1ccc(/C=C/C(=O)c2ccc(Br)cc2)cc1', '=', 2),
  ('Cc1ccc(C(=O)/C=C/c2ccc(/C=N/NC(=O)c3ccccc3)cc2)c(C)c1', '>', 64),
  ('Cc1ccc(C(=O)/C=C/c2ccc(/C=N/NC(=O)c3ccncc3)cc2)c(C)c1', '>', 64),
  ('O=C(N/N=C/c1ccc(/C=C/C(=O)c2ccccc2F)cc1)c1ccccc1', '>', 64),
  ('N=C(N)N/N=C/c1ccc(/C=C/C(=O)c2cccc(Br)c2)cc1', '=', 2),
  ('O=C(N/N=C/c1ccc(/C=C/C(=O)c2ccccc2Cl)cc1)c1cccc(Cl)c1', '=', 32),
  ('O=C(N/N=C/c1ccc(/C=C/C(=O)c2ccccc2Br)cc1)c1ccccc1', '>', 64),
  ('O=C(N/N=C/c1ccc(/C=C/C(=O)c2ccc(Cl)cc2Cl)cc1)c1ccncc1', '=', 8),
  ('N=C(N)N/N=C/c1ccc(/C=C/C(=O)c2ccccc2F)cc1', '=', 4);
